Species: Homo sapiens
assay.comment: Selectivity ratio of IC50 for human liver Cathepsin B to IC50 for human liver Cathepsin L
Listed here: items and their measured Ratio IC50.

Answered examples (5):
compound=NC(=S)N/N=C1\CCNc2c1cc([N+](=O)[O-])cc2[N+](=O)[O-] result="> 20"
compound=NC(=S)N/N=C1\CCN([N+](=O)[O-])c2ccc([N+](=O)[O-])cc21 result="> 20"
compound=NC(=S)N/N=C1\CCOc2ccc(Cl)cc21 result="> 20"
compound=NC(=S)N/N=C1\CCNc2ccc(Br)cc21 result="> 20"
compound=NC(=S)N/N=C1\CCCSc2ccc([N+](=O)[O-])cc21 result="> 15.2"

Reported Ratio IC50 of NC(=S)N/N=C1\CCNc2ccc([N+](=O)[O-])cc21 : > 20

Value of Ratio IC50 reported for the compound NC(=S)N/N=C1\CC[S+]([O-])c2ccc([N+](=O)[O-])cc21 (configuration not stated) is > 5.7

###

Parameter IC50: see the listing below.
experimental.system: Cathepsin B (Homo sapiens, UniProt P07858)

compound_smiles=NC(=S)N/N=C1\CCCS(=O)(=O)c2ccc([N+](=O)[O-])cc21 result="> 10 µM"
compound_smiles=NC(=S)N/N=C1\CCCSc2ccc([N+](=O)[O-])cc21 result="> 10 µM"
compound_smiles=N=C(N)N/N=C1\CCSc2ccc([N+](=O)[O-])cc21 result="> 10 µM"
compound_smiles=NC(=S)N/N=C1\CCS(=O)(=O)c2ccc(N)cc21 result="> 10 µM"
compound_smiles=NC(=S)N/N=C1\CCCc2c(O)cccc21 result="> 10 µM"

Now for the compound whose IC50 we want.
Data point: NC(=S)N/N=C1\CCCS(=O)(=O)c2cc(F)c(F)cc21 ; IC50 = > 10 µM

###

pIC50: −log10 of the molar value.
Procathepsin L (Homo sapiens) pIC50 data
Sequence (P07711 whole entry): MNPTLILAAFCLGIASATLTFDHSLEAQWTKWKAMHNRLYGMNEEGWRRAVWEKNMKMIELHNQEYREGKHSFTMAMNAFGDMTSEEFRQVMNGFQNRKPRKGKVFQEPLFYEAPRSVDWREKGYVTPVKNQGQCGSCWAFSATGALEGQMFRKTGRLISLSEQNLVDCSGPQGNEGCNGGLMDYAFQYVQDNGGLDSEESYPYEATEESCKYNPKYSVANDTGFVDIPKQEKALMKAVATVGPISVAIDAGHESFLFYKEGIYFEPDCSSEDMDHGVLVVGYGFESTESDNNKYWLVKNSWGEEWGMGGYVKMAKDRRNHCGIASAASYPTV

Guide cases for pIC50, answers given:
compound=COc1ccc2c(c1)/C(=N/NC(N)=S)CCC2 experimental_system="Procathepsin L (Homo sapiens)" result="< 5.00"
compound=NC(=S)N/N=C1\CCCc2c(O)cccc21 experimental_system="Procathepsin L (Homo sapiens)" result="< 5.00"
compound="NC(=S)N/N=C1\\CC[S+]([O-])c2ccc([N+](=O)[O-])cc21 (stereo unspecified)" experimental_system="Procathepsin L (Homo sapiens)" result=5.76
compound=NC(=S)N/N=C1\CCN([N+](=O)[O-])c2ccc([N+](=O)[O-])cc21 experimental_system="Procathepsin L (Homo sapiens)" result=6.64
compound=CN1CC/C(=N\NC(N)=S)c2cc(Br)ccc21 experimental_system="Procathepsin L (Homo sapiens)" result="< 5.00"

Shifting focus to the compound that follows.
The reported value for NC(=S)NN=C1c2cc([N+](=O)[O-])ccc2-c2ccc([N+](=O)[O-])cc21 in terms of pIC50 is < 5.00

###

// Procathepsin L (Homo sapiens, UniProt P07711) IC50 records

See these solved cases before continuing.
compound_smiles=NC(=S)N/N=C1\CCCS(=O)(=O)c2cc(F)c(F)cc21 result="> 10 µM"
compound_smiles=NC(=S)N/N=C1\CCNc2c(Cc3ccccc3)cccc21 result="> 10 µM"
compound_smiles=NC(=S)N/N=C1\CCN([N+](=O)[O-])c2ccccc21 result="> 10 µM"
compound_smiles=CS(=O)(=O)c1ccc2c(c1)/C(=N/NC(N)=S)CCS2(=O)=O result="> 10 µM"
compound_smiles=COc1cccc2c1CCC/C2=N\NC(N)=S result="> 10 µM"

In plain terms, NC(=S)N/N=C1\CCCSc2ccc([N+](=O)[O-])cc21 has a documented IC50 of 0.658 µM

// IC50 lookup, compound = CC(=O)N1CC/C(=N\NC(N)=S)c2ccccc21 , result: > 10 µM

Per the record, NC(=S)N/N=C1\CCOc2ccc(Cl)cc21 has IC50 of 0.369 µM
